Listed next: entries and their corresponding inhibition at 10 µM.
- EXPERIMENTAL_SYSTEM: c-Met kinase domain recombinant protein (Homo sapiens, UniProt P08581)
- Construct: 50 μL diluted solution of c-Met kinase domain recombinant protein in reaction buffer was added to initiate the reaction
- Sequence (P08581 1078-1345 limits assumed): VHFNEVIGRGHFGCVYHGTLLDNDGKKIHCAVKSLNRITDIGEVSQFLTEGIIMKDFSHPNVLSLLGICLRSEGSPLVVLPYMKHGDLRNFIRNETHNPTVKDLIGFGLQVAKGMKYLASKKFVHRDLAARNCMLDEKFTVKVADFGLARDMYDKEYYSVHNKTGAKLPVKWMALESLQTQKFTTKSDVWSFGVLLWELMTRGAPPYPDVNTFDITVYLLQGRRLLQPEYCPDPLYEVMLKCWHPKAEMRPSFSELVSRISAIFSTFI
- METHOD_DESCRIPTION: biochemical
- MEASUREMENT_SETUP: read-out: Average inhibition rate at 10 μM (%)
- Procedure: Enzymatic reaction substrate Poly(Glu,Tyr)4:1 was diluted to 20 μg/mL in potassium ion free PBS (10 mM sodium phosphate buffer, 150 mM NaCl, pH7.2-7.4), microplate was coated with this solution at 125 μL per well, and reacted at 37° C. for 12-16 hours. […] The plate was washed three times with T-PBS. […] Reaction was terminated by adding 50 μL per well of 2M H2SO4, the plate was read at 490 nm using a SPECTRA MAX 190 microplate reader with tunable wavelength. […]
QUANTITY_MEASURED: inhibition at 10 µM

- MOL_SMILES: "COc1ccc(OC)c(-c2cnc3cnn(S(=O)(=O)c4cnc5ccccn45)c3c2)c1"
  QUANTITY_MEASURED: "inhibition at 10 µM"
  DATA_VALUE: "68.7%"
- MOL_SMILES: "CC(C)N1CCC(n2cc(-c3cnc4cnn(S(=O)(=O)c5cnc6ccccn56)c4c3)cn2)CC1"
  QUANTITY_MEASURED: "inhibition at 10 µM"
  DATA_VALUE: "59.8%"
- MOL_SMILES: "Cn1cc(-c2cnc3cnn(S(=O)(=O)c4ccccc4[N+](=O)[O-])c3c2)cn1"
  QUANTITY_MEASURED: "inhibition at 10 µM"
  DATA_VALUE: "84.6%"
- MOL_SMILES: "Cn1cc(-c2cnc3cnn(S(=O)(=O)c4cnc5ccc(-c6ccc(C#N)cc6)cn45)c3c2)cn1"
  QUANTITY_MEASURED: "inhibition at 10 µM"
  DATA_VALUE: "78.9%"
- MOL_SMILES: "Cn1cc(-c2cnc3cnn(S(=O)(=O)c4cnc5ccc(-c6cnn(C7CCNCC7)c6)cn45)c3c2)cn1"
  QUANTITY_MEASURED: "inhibition at 10 µM"
  DATA_VALUE: "77.7%"
- MOL_SMILES: "O=S(=O)(c1cnc2ccccn12)n1ncc2ncc(-c3ccsc3)cc21"
  QUANTITY_MEASURED: "inhibition at 10 µM"
  DATA_VALUE: "65.7%"
- MOL_SMILES: "Cn1cc(-c2cnc3cnn(S(=O)(=O)c4ccc(F)cc4)c3c2)cn1"
  QUANTITY_MEASURED: "inhibition at 10 µM"
  DATA_VALUE: "40.7%"
- MOL_SMILES: "Cn1cc(-c2cnc3cnn(S(=O)(=O)c4cnc5ccc(-c6ccc(Cl)cc6)cn45)c3c2)cn1"
  QUANTITY_MEASURED: "inhibition at 10 µM"
  DATA_VALUE: "83.9%"
- MOL_SMILES: "Cn1cc(-c2cnc3cnn(S(=O)(=O)c4cnc5ccc(-c6cncnc6)cn45)c3c2)cn1"
  QUANTITY_MEASURED: "inhibition at 10 µM"
  DATA_VALUE: "12.1%"
- MOL_SMILES: "Cn1cc(-c2cnc3cnn(S(=O)(=O)c4cnc5ccc(C(F)(F)F)cn45)c3c2)cn1"
  QUANTITY_MEASURED: "inhibition at 10 µM"
  DATA_VALUE: "65.2%"
- MOL_SMILES: "O=S(=O)(c1cnc2ccccn12)n1ncc2ncc(-c3ccc4c(c3)OCCO4)cc21"
  QUANTITY_MEASURED: "inhibition at 10 µM"
  DATA_VALUE: "66.3%"
- MOL_SMILES: "CC(=O)N1CCC(n2cc(-c3cnc4cnn(S(=O)(=O)c5cnc6ccccn56)c4c3)cn2)CC1"
  QUANTITY_MEASURED: "inhibition at 10 µM"
  DATA_VALUE: "62.1%"
- MOL_SMILES: "Cn1cc(-c2cnc3cnn(S(=O)(=O)c4cnc5ccc(-c6ccsc6)cn45)c3c2)cn1"
  QUANTITY_MEASURED: "inhibition at 10 µM"
  DATA_VALUE: "76.5%"
- MOL_SMILES: "CC(C)(C)OC(=O)N1CCC(n2cc(-c3cnc4cnn(S(=O)(=O)c5cnc6ccccn56)c4c3)cn2)CC1"
  QUANTITY_MEASURED: "inhibition at 10 µM"
  DATA_VALUE: "87.5%"
- MOL_SMILES: "CC(C)N1CCC(n2cc(-c3cnc4cnn(S(=O)(=O)c5cnc6ccc(C(F)(F)F)cn56)c4c3)cn2)CC1"
  QUANTITY_MEASURED: "inhibition at 10 µM"
  DATA_VALUE: "59.6%"
- MOL_SMILES: "Cn1cc(-c2cnc3cnn(S(=O)(=O)c4cnc5ccc(-c6cnn(C7CCN(C(=O)OC(C)(C)C)CC7)c6)cn45)c3c2)cn1"
  QUANTITY_MEASURED: "inhibition at 10 µM"
  DATA_VALUE: "78.3%"
- MOL_SMILES: "Cn1cc(-c2cnc3cnn(S(=O)(=O)c4cnc5ccc(-c6cccc(C#N)c6)cn45)c3c2)cn1"
  QUANTITY_MEASURED: "inhibition at 10 µM"
  DATA_VALUE: "85.4%"
- MOL_SMILES: "O=C(C1CC1)N1CCC(n2cc(-c3cnc4cnn(S(=O)(=O)c5cnc6ccccn56)c4c3)cn2)CC1"
  QUANTITY_MEASURED: "inhibition at 10 µM"
  DATA_VALUE: "60.8%"
- MOL_SMILES: "Cn1cc(-c2cnc3cnn(S(=O)(=O)c4ccccc4F)c3c2)cn1"
  QUANTITY_MEASURED: "inhibition at 10 µM"
  DATA_VALUE: "34.4%"
- MOL_SMILES: "Cn1cc(-c2cnc3cnn(S(=O)(=O)c4cnc5ccc(-c6ccc(CN7CCOCC7)cc6)cn45)c3c2)cn1"
  QUANTITY_MEASURED: "inhibition at 10 µM"
  DATA_VALUE: "74.1%"
- MOL_SMILES: "Cn1cc(-c2cnc3cnn(S(=O)(=O)c4cnc5ncccn45)c3c2)cn1"
  QUANTITY_MEASURED: "inhibition at 10 µM"
  DATA_VALUE: "65.1%"
- MOL_SMILES: "CC(C)(C)OC(=O)N1CCC(n2cc(-c3cnc4cnn(S(=O)(=O)c5cnc6ccc(C(F)(F)F)cn56)c4c3)cn2)CC1"
  QUANTITY_MEASURED: "inhibition at 10 µM"
  DATA_VALUE: "63%"
- MOL_SMILES: "CC(C)(C)OC(=O)N1CCC(n2cc(-c3cnc4cnn(S(=O)(=O)c5cnc6ccc(Cl)cn56)c4c3)cn2)CC1"
  QUANTITY_MEASURED: "inhibition at 10 µM"
  DATA_VALUE: "68.2%"
- MOL_SMILES: "Cn1cc(-c2cnc3cnn(S(=O)(=O)c4cnc5ccccn45)c3c2)cn1"
  QUANTITY_MEASURED: "inhibition at 10 µM"
  DATA_VALUE: "59.3%"
- MOL_SMILES: "Cn1cc(-c2cnc3cnn(S(=O)(=O)c4cnc5ccc(-c6ccc(N7CCOCC7)cc6)cn45)c3c2)cn1"
  QUANTITY_MEASURED: "inhibition at 10 µM"
  DATA_VALUE: "83.1%"
- MOL_SMILES: "Cn1cc(-c2cnc3cnn(S(=O)(=O)c4ccc(F)cc4F)c3c2)cn1"
  QUANTITY_MEASURED: "inhibition at 10 µM"
  DATA_VALUE: "37.5%"
- MOL_SMILES: "CC(C)(C)OC(=O)N1CCC(n2cc(-c3cnc4cnn(S(=O)(=O)c5cnn6cccnc56)c4c3)cn2)CC1"
  QUANTITY_MEASURED: "inhibition at 10 µM"
  DATA_VALUE: "81.3%"
- MOL_SMILES: "Cc1ccc(-c2ccc3ncc(S(=O)(=O)n4ncc5ncc(-c6cnn(C)c6)cc54)n3c2)cc1"
  QUANTITY_MEASURED: "inhibition at 10 µM"
  DATA_VALUE: "81.1%"
- MOL_SMILES: "O=S(=O)(c1cnc2ccccn12)n1ncc2ncc(-c3ccccc3)cc21"
  QUANTITY_MEASURED: "inhibition at 10 µM"
  DATA_VALUE: "70.6%"
- MOL_SMILES: "COc1ccc(S(=O)(=O)n2ncc3ncc(-c4cnn(C)c4)cc32)cc1OC"
  QUANTITY_MEASURED: "inhibition at 10 µM"
  DATA_VALUE: "37.9%"
- MOL_SMILES: "Cn1cc(-c2cnc3cnn(S(=O)(=O)c4cnc5ccc(-c6ccc7c(c6)OCCO7)cn45)c3c2)cn1"
  QUANTITY_MEASURED: "inhibition at 10 µM"
  DATA_VALUE: "77.9%"
